- STUDY TARGET: T1, eukaryotic murine La protein (mLa) (murine, UniProt P32067 1-415)
- T1 construct: In total extracts or fixed cells; also called endogenous mLa protein; eukaryote-produced murine La protein
- T1 sequence (looked up): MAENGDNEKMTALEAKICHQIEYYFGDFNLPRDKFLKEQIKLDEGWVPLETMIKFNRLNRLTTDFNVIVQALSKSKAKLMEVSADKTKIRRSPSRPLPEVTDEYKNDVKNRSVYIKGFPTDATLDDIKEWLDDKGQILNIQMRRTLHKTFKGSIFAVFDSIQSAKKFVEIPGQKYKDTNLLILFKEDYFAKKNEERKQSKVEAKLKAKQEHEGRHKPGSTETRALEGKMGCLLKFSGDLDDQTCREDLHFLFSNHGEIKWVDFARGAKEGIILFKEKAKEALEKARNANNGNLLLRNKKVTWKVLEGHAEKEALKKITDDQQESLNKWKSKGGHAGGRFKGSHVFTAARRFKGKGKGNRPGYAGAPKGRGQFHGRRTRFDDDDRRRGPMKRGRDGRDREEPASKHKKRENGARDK
- MEASUREMENT DESCRIPTION: immunoblot, 3T3 total extract

BINDER	binding result
anti-La monoclonal antibody 27E (antibody, IgG2b, V domains shown) VH: VQLQESGAELARPGASVKLSCKASGYSFRSYGINWVKQRTGQGLEWIGEIYPGSGTTFYNEKFRGKATLTADKSSSTAYMQLKSLTSEDSAVYFCARHGGYPFYFDYWGQGTTLTVSS VL: DIVMTQSPAIMSASPGEKVTISCSASSSVSYMYWYQQKPGSSPKPWIYRTSNLASGVPARFSGSGSGTSYSLTISSMEAEDAATYYCQQYHSYPRTFGGGTKLEIKR	binds
